Hey, just so you know, these numbers are from ChEMBL document CHEMBL1131676.

Listing of entries alongside the reported Ki.
TEST_TARGET: Prothrombin (Homo sapiens, UniProt P00734)

Entry O=C([C@H](Cc1ccccn1)NS(=O)(=O)c1cnccc1N[C@H](CO)Cc1ccccc1)N1CCC(CCF)CC1 : Ki on Prothrombin (Homo sapiens, UniProt P00734) = 81 nM

Entry O=C([C@H](Cc1cscn1)NS(=O)(=O)c1cnccc1N[C@H](CO)Cc1ccccc1)N1CCC(CCF)CC1 : Ki on Prothrombin (Homo sapiens, UniProt P00734) = 280 nM

Entry O=C([C@H](Cc1ccc(O)c(O)c1)NS(=O)(=O)c1cnccc1N[C@H](CO)Cc1ccccc1)N1CCC(CCF)CC1 : Ki on Prothrombin (Homo sapiens, UniProt P00734) = 82 nM

Entry O=C([C@@H](NS(=O)(=O)c1cnccc1N[C@H](CO)Cc1ccccc1)C1CCCCC1)N1CCC(CCF)CC1 : Ki on Prothrombin (Homo sapiens, UniProt P00734) = 11800 nM
